# maps each entry to its TGI
- Test system: M14 melanoma
- ASSAY_METHOD_TEXT: NCI tumour cell line growth inhibition, 48 h
MEASURE: TGI

INSERT INTO assay_data (compound, meas_value) VALUES
  ('CC(NC(C#N)CC12CC3CC(CC(C3)C1)C2)c1ccccc1 (centres undefined)', '> 100 µM'),
  ('Cn1c(=O)c(Oc2ccccc2)cc2cnc(NC3CCOCC3)nc21', '> 25 µM'),
  ('O=C(Nc1ccccc1)Nc1cccc(Oc2nnc(Cl)c3ccccc23)c1', '> 25 µM'),
  ('CCC(C(=O)c1ccccc1)C(CCCC(=O)Nc1c(C)cccc1C)N=O (centres undefined)', '> 100 µM'),
  ('C(=C\c1cc(-c2ccc3ccccc3n2)nc2ccc3ccccc3c12)/c1ccc2ccccc2n1', '> 100 µM'),
  ('S=C(Nc1ccccn1)Nc1ccccc1Cl', '> 100 µM'),
  ('CC1(O)CCC2(C#N)CCC1C2O (centres undefined)', '> 100 µM'),
  ('O=[N+]([O-])c1c2nc3n(c2cc2c1nc1n2CCC1)CCC3', '> 100 µM'),
  ('COc1ccc(/C=N/NC(=O)c2cnc3[nH]c(=O)n(C)c(=O)c3c2)cc1', '> 100 µM'),
  ('CCN(CC)CCCOc1cc2c(cc1OC)C(=O)N1CCC[C@H]1C=N2', '> 100 µM'),
  ('Cc1ccc(Oc2ccc([N+](=O)[O-])cc2[N+](=O)[O-])c(C)c1', '> 100 µM'),
  ('C=CC1=C(C)C2=NC1=CC1=NC(=CC3=C(C)C4=C(O)C(C(=O)OC)C(=C5NC(=C2)C(C)C5CCC(=O)OC)C4=N3)C(CC)=C1C (centres undefined)', '> 100 µM'),
  ('CC(C)(C)c1ccc(C(C)(C)C)c(N2C(=O)C3ON=C(c4ccc([N+](=O)[O-])cc4)C3C2=O)c1 (centres undefined)', '> 25 µM'),
  ('NS(=O)(=O)c1ccc(NC(=O)c2cccc3cc4ccccc4nc23)cc1', '> 100 µM'),
  ('COc1ccc(Oc2nc(C#CC(C)(C)O)nc(Oc3ccc(OC)cc3)n2)cc1', '4.24 µM'),
  ('CCOC(=O)Cn1c(=O)c2cc(-c3ccccc3)cc3c(Cl)nc4c(OC)c(OC)cc1c4c32', '32.9 µM'),
  ('CC1(C)CC2(C)CC1CC2NC(=O)CCN1CCOCC1 (centres undefined)', '> 100 µM'),
  ('CC(=O)/C=C(\O)c1[nH]c(C(=O)O)cc1C1CCN(Cc2ccccc2)C1=O (centres undefined)', '29.6 µM'),
  ('c1ccc(COC2(OCc3ccccc3)CC3OC2C2NN=NC32)cc1 (centres undefined)', '39.4 µM'),
  ('Cc1nc(C(N)=S)sc1C(=O)C/C(=N/N)C(=O)Nc1ccc(Cl)cc1', '> 100 µM'),
  ('Clc1ncc(Cl)c(Cl)n1', '10.6 µM'),
  ('CCCN(CCSSCCNc1nc(N(C)O)nc(N(C)O)n1)c1nc(N(C)O)nc(N(C)O)n1', '> 100 µM'),
  ('CC12CCC(C(Nc3ccccn3)C1=O)C2(C)C (centres undefined)', '> 100 µM'),
  ('Nn1c(Cc2ccccc2)n[nH]c1=O', '> 100 µM'),
  ('Cc1nc2ccccc2n1Cc1nnc(N)o1', '> 100 µM'),
  ('COc1cc2c(cn1)[nH]c1ccccc12', '> 100 µM'),
  ('CC(C)CN(CC(C)C)C(=O)C1CCCC[C@@H]1C(=O)O (some centres undefined)', '> 100 µM'),
  ('CC(NC(=O)C(N)CC(=O)O)NC(=O)N(C)C(C)(C)C (centres undefined)', '> 100 µM'),
  ('COc1cc(/C=C2\C(=O)Nc3cccc(Cl)c32)cc(OC)c1OC', '> 100 µM'),
  ('O=C1ON=C2C3CC4CC12CC1(C3)C(=O)ON=C41', '> 100 µM'),
  ('NS(=O)(=O)c1nnc(NS(=O)(=O)c2ccccc2C(=O)O)s1', '> 100 µM'),
  ('OCc1ccc(N(CCN2CCCC2)Cc2ccc(F)cc2)cc1Cl', '30.9 µM'),
  ('C=C1C(=O)O[C@H]2[C@H]1CC/C(Cn1cc(-c3cc(C)c(C)cc3C)nn1)=C\CC[C@@]1(C)O[C@@H]21', '3.27 µM'),
  ('O=C(/C=C/c1ccccc1Cl)c1ccc(Cl)cc1Cl', '32 µM'),
  ('CN(C)CCCn1c2nc(=O)[nH]c(=O)c-2nc2cc(Cl)c(Cl)cc21', '13 µM'),
  ('CC(=O)N1c2ccccc2C(C)C1c1[nH]c2ccccc2c1C (centres undefined)', '42.5 µM'),
  ('N#C/C(=C\c1ccc(C(O)P(=O)(O)O)cc1)C(N)=O (centres undefined)', '> 100 µM'),
  ('NC1=Nc2cc(OCCCN3Cc4ccccc4C3)c(OCC3CC3)cc2C12CCCC2', '3.47 µM'),
  ('CC1(CC2=C(C(=O)NCCO[Si](C)(C)C(C)(C)C)C3(OCCO3)C2=O)OCCO1', '> 100 µM'),
  ('O=C(NCc1ccncc1)C1COc2cc(-c3cc(=O)c4ccccc4o3)ccc2O1 (centres undefined)', '> 100 µM'),
  ('CCN1CCC(O)(c2ccc(Oc3ccc(C)cc3)cc2)C(C(=O)c2ccc(Oc3ccc(C)cc3)cc2)C1 (centres undefined)', '30.6 µM'),
  ('COc1ccc(-c2csc(NC(=O)c3cc(O)c(O)c(O)c3)n2)cc1', '> 33.3 µM'),
  ('C=C(C)[C@@H]1CCC2=C[C@H](CC(C)=CC3=CC(C)=C(O3)[C@@H]1OC)OC2=O', '> 100 µM'),
  ('O=C(CC1C=CCS1(=O)=O)NCc1ccccc1 (centres undefined)', '> 100 µM');

---

- System: SF-295 CNS
- ASSAY_METHOD_TEXT: NCI tumour cell line growth inhibition, 48 h; in the data active = GI50 below about 0.43 µM; inactive = the rest
Outcome codes: active, inactive

INSERT INTO results (molecule, label_value) VALUES
  ('Cn1c(=O)c(Oc2ccccc2)cc2cnc(NC3CCOCC3)nc21', 'inactive'),
  ('CCOC(=O)c1cc(C(=O)c2cc(OC)c(OC)c(OC)c2)n2ccccc12', 'active'),
  ('COc1cc(/C=C2\C(=O)Nc3cccc(Cl)c32)cc(OC)c1OC', 'inactive'),
  ('COc1ccccc1/C=C/C(=O)/C=C/c1ccccc1OC', 'inactive'),
  ('O=C1CCS/C(=N\S(=O)(=O)c2ccc(N3N=C4c5ccccc5CC4C3c3cccs3)cc2)N1C(=O)c1ccccc1 (stereo unspecified)', 'inactive'),
  ('CSc1ncnc2c1CCN2', 'inactive');

---

- Tested on: HCC-2998 colon
- ASSAY_METHOD_TEXT: NCI tumour cell line growth inhibition, 48 h
# maps each entry to its TGI
MEASURE: TGI

INSERT INTO assay_data (compound, meas_value) VALUES
  ('C=CC1=C(C)C2=NC1=CC1=NC(=CC3=C(C)C4=C(O)C(C(=O)OC)C(=C5NC(=C2)C(C)C5CCC(=O)OC)C4=N3)C(CC)=C1C (stereo not drawn)', '> 100 µM'),
  ('N#CC1C2CCC3(CC2CCN1C(=O)c1ccccc1)OCCO3 (stereo not drawn)', '> 100 µM'),
  ('Cc1ccc(C(=O)Nc2ccc(S(=O)(=O)O)c3cc(S(=O)(=O)O)cc(S(=O)(=O)O)c23)cc1NC(=O)c1cccc(NC(=O)Nc2cccc(C(=O)Nc3cc(C(=O)Nc4ccc(S(=O)(=O)O)c5cc(S(=O)(=O)O)cc(S(=O)(=O)O)c45)ccc3C)c2)c1 (tested in a mixture with another compound)', '> 50 µM'),
  ('CCSc1nnc(-c2ccc3ccccc3c2O)n1-c1ccc(Cl)cc1', '> 100 µM'),
  ('c1ccc2nc(CCC3CCCCN3)ccc2c1 (stereo not drawn)', '> 100 µM'),
  ('CC(=O)OC1Oc2ccccc2-c2oc(=O)c(-c3cc4ccccc4oc3=O)cc21 (stereo not drawn)', '> 100 µM'),
  ('COc1ccccc1NC(=O)O/N=C(/Cl)C(C)C', '30.1 µM'),
  ('S=C(Nc1ccccn1)Nc1ccccc1Cl', '> 100 µM');

---

- Test system: SW-620 colon
- ASSAY_METHOD_TEXT: NCI tumour cell line growth inhibition, 48 h; in the data active = GI50 below about 0.43 µM; inactive = the rest
Outcome codes: active, inactive

INSERT INTO measurements (structure_smiles, target_desc, label_value) VALUES
  ('COc1ccc2c(c1)/C(=N/OC(C)=O)c1c-2c(=O)[nH]c2ccccc12', 'SW-620 colon', 'inactive'),
  ('O=C1NN(c2ccccc2)C(=O)/C1=C/c1ccc(Br)o1', 'SW-620 colon', 'inactive'),
  ('Cc1cc2cn3c4cccnc4[nH]c(=O)c3c2cc1C', 'SW-620 colon', 'inactive'),
  ('OCc1ccc(N(CCN2CCCC2)Cc2ccc(F)cc2)cc1Cl', 'SW-620 colon', 'inactive'),
  ('C=C1C(=O)O[C@H]2[C@H]1CC/C(Cn1cc(-c3cc(C)c(C)cc3C)nn1)=C\CC[C@@]1(C)O[C@@H]21', 'SW-620 colon', 'active');

Data origin: PubChem BioAssay (NCI)
